# Test system: Vero E6 infected with SARS-CoV-2
# TEST_METHOD_NOTES: inhibition of SARS-CoV-2 cytopathic effect; higher = more antiviral protection, active = above 15
# STUDY_CONDITIONS: 1 nM; 48 h
QUANTITY_KIND: inhibition of SARS-CoV-2 cytopathic effect (%)
# value in %; strip the unit string

Sample C[C@H](Cc1cc2c(c(C(N)=O)c1)N(CCCO)CC2)NCCOc1ccccc1OCC(F)(F)F — what was its inhibition of SARS-CoV-2 cytopathic effect? 3.7

Entry COc1ccc2c(c1OC)C(=O)O[C@@H]2[C@H]1c2cc3c(cc2CCN1C)OCO3 [hydrastine-(1R,9S)] : reported inhibition of SARS-CoV-2 cytopathic effect = ? 2.12

Param item = CCN(CC)C(=S)SSC(=S)N(CC)CC ; retrieve measured inhibition of SARS-CoV-2 cytopathic effect. 1.63

If you can, please state the reported inhibition of SARS-CoV-2 cytopathic effect value of CC(=O)OCC(=O)[C@H]1CC[C@H]2[C@@H]3CCC4=CC(=O)CC[C@]4(C)[C@H]3CC[C@]12C [deoxycorticosterone-acetate] . -2.24

Bench note: what inhibition of SARS-CoV-2 cytopathic effect did CN(C)N(C)C(=O)[C@@]1(Cc2ccccc2)CCCN(C(=O)[C@@H](Cc2c[nH]c3ccccc23)NC(=O)C(C)(C)N)C1 show? -0.24

Please report the recorded inhibition of SARS-CoV-2 cytopathic effect for COC(=O)/C=C/c1cccc(N(Cc2ccc(-c3ccc(N(C)C)cc3)cc2)C(=O)C2CCCCC2)c1 . -0.19

I would be grateful if you could share the reported inhibition of SARS-CoV-2 cytopathic effect for Nc1nc(NC2CC2)cc(-c2cccc(Cl)c2Cl)n1 . 0.66

Form field: reported inhibition of SARS-CoV-2 cytopathic effect of CCOC(=O)CNC(=O)[C@@H]1CCCN1C(=O)Cc1ccccc1 0.67

Data request, read-out inhibition of SARS-CoV-2 cytopathic effect, for CN(C)c1cccc(-c2c3c(=O)n(-c4ccccc4Cl)[nH]c3cc(=O)n2C)c1 -1.01

Item CN1C[C@@H]2C[C@H]1CN2c1cc2c(cc1F)c(=O)c(C(=O)O)cn2C1CC1 has what recorded inhibition of SARS-CoV-2 cytopathic effect? 0.88

Requested field: inhibition of SARS-CoV-2 cytopathic effect. Item: Cc1ccc2c(c1)c1c3n2CCNC3CCC1 (configuration not stated) -1.68

Which inhibition of SARS-CoV-2 cytopathic effect reading was recorded for the compound CC(C)=CCC[C@](C)(O[C@@H]1O[C@H](CO)[C@@H](O)[C@H](O)[C@H]1O)[C@H]1CC[C@]2(C)[C@@H]1[C@H](O)C[C@@H]1[C@@]3(C)CC[C@H](O)C(C)(C)[C@@H]3CC[C@]12C [ginsenoside-C-K] ? 3.53

What value of inhibition of SARS-CoV-2 cytopathic effect has been reported for the following compound? c1ccc([C@H]2CNCc3ccccc32)cc1 [4-phenyl-1,2,3,4-tetrahydroisoquinoline] -0.57

What inhibition of SARS-CoV-2 cytopathic effect value was documented for this compound, O=C(/C=C/c1cccc(F)c1)NC1CC1 [cinflumide] ? 2.05

Which measured inhibition of SARS-CoV-2 cytopathic effect value corresponds to Oc1cccc(Nc2ncc(F)c(Nc3cccc(O)c3)n2)c1 ? 2.79

Given Cc1ccc(C(=O)c2ccc(CC(=O)O)n2C)cc1 , state its recorded inhibition of SARS-CoV-2 cytopathic effect. -2.48

Given the entry CC(C)Oc1ccc(-c2nc(-c3cccc4c3CC[C@H]4NCCC(=O)O)no2)cc1C#N , report its measured inhibition of SARS-CoV-2 cytopathic effect. -2.71

---

# Tested on: Vero E6 infected with SARS-CoV-2
# TEST_METHOD_NOTES: inhibition of SARS-CoV-2 cytopathic effect; higher = more antiviral protection, active = above 15
# STUDY_CONDITIONS: 1 nM; 48 h
Listed next: entries and their corresponding inhibition of SARS-CoV-2 cytopathic effect.
Answer format: numeric, % implied, no suffix.

1. COC(=O)CC[C@@H]1N=C(c2ccccn2)c2cc(Br)ccc2-n2c(C)cnc21 [remimazolam] :: 0.83

Give its inhibition of SARS-CoV-2 cytopathic effect value. Item: O=C(CCCN1CCC2(CC1)C(=O)N(Cc1cccc(F)c1)CN2c1ccccc1)c1ccc(F)cc1 [3'-fluorobenzylspiperone] 1.1

Using the record for CO[C@H]1CC[C@H](N2C(=O)CNc3ncc(-c4ccc(C(C)(C)O)nc4)nc32)CC1 , report its inhibition of SARS-CoV-2 cytopathic effect. 0.96

For O=C(NNc1ccccc1)c1ccncc1 [plurisin-1] , what is its reported inhibition of SARS-CoV-2 cytopathic effect? 0.37

Any idea what its inhibition of SARS-CoV-2 cytopathic effect is? The molecule is Cn1cc(-c2cnn3c(N)c(Br)c([C@@H]4CCCNC4)nc23)cn1 0.61

Consider the molecule CC(C)=CCC[C@](C)(O[C@@H]1O[C@H](CO)[C@@H](O)[C@H](O)[C@H]1O)[C@H]1CC[C@]2(C)[C@@H]1[C@H](O)C[C@@H]1[C@@]3(C)CC[C@H](O[C@@H]4O[C@H](CO)[C@@H](O)[C@H](O)[C@H]4O[C@@H]4O[C@H](CO)[C@@H](O)[C@H](O)[C@H]4O)C(C)(C)[C@@H]3CC[C@]12C [ginsenoside-RD] and give its measured inhibition of SARS-CoV-2 cytopathic effect. -2.36

What does the data say about its inhibition of SARS-CoV-2 cytopathic effect? Entry: C#Cc1cccc2c1c(C(=O)c1ccc(Cn3c(C)nc4cnccc43)c(F)c1)cn2C(=O)N(C)C -0.44

---

# Tested on: Vero E6 infected with SARS-CoV-2
# TEST_METHOD_NOTES: inhibition of SARS-CoV-2 cytopathic effect; higher = more antiviral protection, active = above 15
# STUDY_CONDITIONS: 10000 nM; 48 h
Write down the outcome that applies. Available outcomes: True for active, False for inactive

Would you please look over these solved cases?
1) CN(C(=O)CN1C(=O)COc2cc(Cl)c(Cl)cc21)[C@@H](CN1CCCC1)c1ccc(-c2cccc(C(N)=O)c2)cc1 :: False
2) Cc1ccc2c(c1CCC(=O)O)CC[C@@H](NS(=O)(=O)c1ccc(Cl)cc1)C2 :: False
3) CN1CCN(C2CCN(C(=O)Nc3cc(Oc4ccc(NC(=O)C5(C(=O)Nc6ccc(F)cc6)CC5)c(F)c4)ccn3)CC2)CC1 :: True

We now examine a further compound.
Call for entry O=c1oc(-c2ccc(C(F)(F)F)cc2)nn1Cc1cc(Cl)ccc1O : False

---

# System: Vero E6 infected with SARS-CoV-2
# TEST_METHOD_NOTES: inhibition of SARS-CoV-2 cytopathic effect; higher = more antiviral protection, active = above 15
# STUDY_CONDITIONS: 8.33 nM; 48 h
QUANTITY_KIND: inhibition of SARS-CoV-2 cytopathic effect (%)
Could you give me the number in %? Just the number is fine.

1. CCCOC(C(=O)OC1CCN(C)CC1)(c1ccccc1)c1ccccc1 :: 1.63

Fill in: inhibition of SARS-CoV-2 cytopathic effect of O=C1CCC[C@@H]2[C@H]3C[C@@H](CN12)[C@@H]1CCCCN1C3 is ___ 9.38

Can you look up the measured inhibition of SARS-CoV-2 cytopathic effect of Cc1c(C(N)=O)cc([N+](=O)[O-])cc1[N+](=O)[O-] [dinitolmide] for me? 2.03

If you can, please state the reported inhibition of SARS-CoV-2 cytopathic effect value of c1ccc2nc(N3CCNCC3)ccc2c1 . -1.97

Which value of inhibition of SARS-CoV-2 cytopathic effect has been reported for NC(=O)C[S+]([O-])C(c1ccccc1)c1ccccc1 (centres undefined) in the records? -3.65

Which inhibition of SARS-CoV-2 cytopathic effect value belongs to Cc1c(F)cc(C(=O)NC2CC2)cc1-c1c(F)cn2c(C(C)(C)C)nnc2c1F ? -0.6

---

# Tested on: Vero E6 infected with SARS-CoV-2
# TEST_METHOD_NOTES: SARS-CoV-2 infection rate relative to infected DMSO; higher = more infection, active = 60 or less
# STUDY_CONDITIONS: 24 h
Could you please pick one outcome from this set? 1.0 = active, 0.0 = inactive

Take a look at these entries with their results.
1. C[C@]12Cc3c[nH]nc3C[C@@H]1CC[C@@H]1[C@@H]2CC[C@@]2(C)[C@H]1CC[C@]2(C)O [stanozolol] (10 µM) :: 0.0
2. Cc1ccc(/C=C2\CNC/C(=C\c3ccc(C)cc3)C2=O)cc1 (0.833333 µM) :: 0.0
3. CCOC(=O)Nc1cc2c(c(N)n1)N=C(c1ccccc1)[C@H](C)N2 [mivobulin] (10 µM) :: 0.0
4. CCCC(=O)Nc1ccc(OCC(O)CNC(C)C)c(C(C)=O)c1 (centres undefined) [acebutolol] (10 µM) :: 0.0
5. CC1(C)O[C@@H]2C[C@H]3[C@@H]4CCC5=CC(=O)C=C[C@]5(C)[C@H]4[C@@H](O)C[C@]3(C)[C@]2(C(=O)CO)O1 [desonide] (10 µM) :: 0.0

GET /call?item= CC(C)(C)c1nc(-c2cccc(NS(=O)(=O)c3c(F)cccc3F)c2F)c(-c2ccnc(N)n2)s1 [dabrafenib] (10 µM) returns the recorded outcome of this test. 0.0

I would be grateful if you could indicate the recorded call for CN(C)c1ccc2c(c1)Sc1cc(N(C)C)ccc1N2 [leucomethylene-blue] (0.833333 µM) . 0.0

How did this test come out for Cc1nc2c(O)cccc2c(=O)[nH]1 (10 µM) ? 0.0

What did the test return for CC(C)=CCC[C@](C)(O)[C@@H]1CC=C(C)CC1 [levomenol] (10 µM) ? 0.0

# fetch the recorded call for Cc1ccc2c(c1)C1(CCN(CCc3nc(-c4ccccc4)oc3C)CC1)OC(=O)N2 (0.833333 µM) here 0.0

Please let me know the test result on file for OCCC#Cc1nc(-c2ccc(F)cc2)c(-c2ccncc2)n1CCCc1ccccc1 (10 µM) . 0.0
